Target: prolyl endopeptidase (Bos taurus, UniProt Q9XTA2)
Sequence (Q9XTA2 whole entry): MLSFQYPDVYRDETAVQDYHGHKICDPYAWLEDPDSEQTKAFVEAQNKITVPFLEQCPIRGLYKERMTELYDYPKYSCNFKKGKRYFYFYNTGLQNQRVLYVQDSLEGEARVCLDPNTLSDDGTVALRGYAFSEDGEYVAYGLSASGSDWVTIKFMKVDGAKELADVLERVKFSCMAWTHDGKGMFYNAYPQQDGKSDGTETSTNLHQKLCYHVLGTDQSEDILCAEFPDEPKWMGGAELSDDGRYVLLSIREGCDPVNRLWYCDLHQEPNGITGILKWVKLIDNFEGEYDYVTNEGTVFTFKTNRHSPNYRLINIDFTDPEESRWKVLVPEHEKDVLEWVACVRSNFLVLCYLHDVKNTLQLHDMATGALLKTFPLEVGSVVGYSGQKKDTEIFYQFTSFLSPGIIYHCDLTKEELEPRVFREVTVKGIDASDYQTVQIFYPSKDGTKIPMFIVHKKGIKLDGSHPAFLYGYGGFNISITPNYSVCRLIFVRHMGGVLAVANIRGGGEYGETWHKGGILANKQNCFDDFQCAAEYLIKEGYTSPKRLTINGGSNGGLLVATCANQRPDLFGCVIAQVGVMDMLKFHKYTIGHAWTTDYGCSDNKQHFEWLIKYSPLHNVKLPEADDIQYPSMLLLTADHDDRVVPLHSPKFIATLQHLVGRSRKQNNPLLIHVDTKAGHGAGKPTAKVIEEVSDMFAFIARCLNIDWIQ
Hi all, reminder that labels come from IC50, split as lower band = under 30 nM, central band = from 30 nM up to 50 nM, upper band = 50 nM and over

| compound | tested_on | label_value |
| --- | --- | --- |
| COc1ccc(CCC(=O)CCC(=O)N2CCC[C@H]2C=O)cc1 | prolyl endopeptidase (Bos taurus, UniProt Q9XTA2) | upper band |
| O=C[C@@H]1CCCN1C(=O)CCC(=O)CCc1ccc2ccccc2c1 | prolyl endopeptidase (Bos taurus, UniProt Q9XTA2) | central band |
| O=C[C@@H]1CCCN1C(=O)CCC(=O)CCc1ccc(C(F)(F)F)cc1 | prolyl endopeptidase (Bos taurus, UniProt Q9XTA2) | lower band |
| O=C[C@@H]1CCCN1C(=O)CCC(=O)CCCc1ccccc1[N+](=O)[O-] | prolyl endopeptidase (Bos taurus, UniProt Q9XTA2) | central band |
| O=C[C@@H]1CCCN1C(=O)CCC(=O)CCCc1ccccc1 | prolyl endopeptidase (Bos taurus, UniProt Q9XTA2) | lower band |
| CC(C)C(C(=O)CCCCc1ccccc1)C(=O)N1CCC[C@H]1C=O (stereo partly drawn) | prolyl endopeptidase (Bos taurus, UniProt Q9XTA2) | upper band |
| O=C[C@@H]1CCCN1C(=O)CCC(=O)CCc1ccc(Cl)cc1 | prolyl endopeptidase (Bos taurus, UniProt Q9XTA2) | lower band |

Moving on to another compound below.
stdin: The entry to classify is O=C[C@@H]1CCCN1C(=O)[C@@H]1CCCC[C@H]1C(=O)CCc1ccccc1 (mixture of isomers) ; which class holds it?
stdout: lower band

###

Molecular target: prolyl endopeptidase (Bos taurus)
Each record is given 1 if its reported IC50 is strictly below 0.02 µM. Records at or above 0.02 µM are given -1.

| compound | label_value |
| --- | --- |
| O=C[C@@H]1CCCN1C(=O)CCC(=O)CCCCc1ccccc1 [1 (f), N-(4-oxo-8-phenyloctanoyl)-L-prolinal] | -1 |

stdin: Does the reported IC50 of the following compound sit strictly below 0.02 µM? Cc1ccc(CCC(=O)CCC(=O)N2CCC[C@H]2C=O)cc1 [1 (i)]
stdout: 1

stdin: Lab note: IC50 threshold 0.02 µM. Does this compound come in strictly under it? O=C[C@@H]1CCCN1C(=O)CCC(=O)CCc1cccc2ccccc12 [1 (k)]
stdout: 1

stdin: Given the entry O=C[C@@H]1CCCN1C(=O)[C@@H]1CCC[C@H]1C(=O)CCc1ccccc1 (mixture of isomers) [1 (b)] , would its reported IC50 be below 0.02 µM?
stdout: 1

stdin: Say whether its IC50 is strictly beneath 0.02 µM. Entry: O=C[C@@H]1CCCN1C(=O)CCC(=O)CCc1ccccc1 [1 (a), N-(6-phenyl-4-oxohexanoyl) L-prolinal]
stdout: -1
